- System: Diplodia maydis (DMA)
- Format: cell-based
- conditions_used: low salt: 1/8x potato dextrose broth plus 0.25 mM calcium chloride, 12.5 mM potassium chloride
observed_property: IC50 (ppm) Low Salt Dma
Give bare numbers, in ppm.

// solved cases for IC50 (ppm) Low Salt Dma follow
substance | unit_abbreviation | IC50 (ppm) Low Salt Dma
PP-PDF1-2CF-10F3: Pp-PDF1 variant from second shuffling round (RVCTKPSKFFRGLCVSDRNCTNACRKEGLPTGECKSKGFFNSVCVCKKPC; Synthetic sequence obtained from DNA shuffling of a plant sequence.) | ppm | 15
Pp-PDF1-3CA-1B2: Pp-PDF1 variant from third shuffling round (RVCTKPSKFYRGLCVSDRDCTHACRKEGLPIGECKSKGFFNSVCVCKKPC; Synthetic sequence obtained from DNA shuffling of a plant sequence.) | ppm | 15

Now examine the next entry.
Form field: reported IC50 (ppm) Low Salt Dma of Pp-PDF1-3CA-2D3: Pp-PDF1 variant from third shuffling round (RVCTKPSKFFRGLCVSDNDCTNACRKEGLPTGFCQSKGFFNSVCVCKKPC; Synthetic sequence obtained from DNA shuffling of a plant sequence.)
6

* * *

- System: Colletotrichum graminicola (CGR; isolate Carroll-IA-99)
- Type: cell-based
- conditions_used: high salt: 1/2x liquid media plus 1 mM calcium chloride, 50 mM potassium chloride; Table 1
Mark y only for IC50 (ppm) High Salt Cgr values smaller than 3 ppm; exact matches and larger values are n.

Previously resolved entries follow.
substance | assigned_class
PP-PDF1-1F-12H3: Pp-PDF1 variant from first shuffling round (RVCTKPSKFFKGLCVSDDDCAHACRKEGLATGKCQKKGFFNRVCVCKKPC; Synthetic sequence obtained from DNA shuffling of a plant sequence.) | n
Pp-PDF1 2CA 5H4: Pp-PDF1 variant from second shuffling round (RVCKKPSKFFKGLCLSDRDCTNACRKEGLATGECQSKGFFNSVCVCEKPC; Synthetic sequence obtained from DNA shuffling of a plant sequence.) | y
Pp-PDF1: Picramnia pentandra plant defensin, parent polypeptide used in the DNA shuffling (KVCTKPSKFFKGLCGADRDCTVACKKEGLATGFCQKKGFFNFVCVCRKPC; listed as Picramnia pentandra) [reference compound] | n
Pp-PDF1-3CA-2D3: Pp-PDF1 variant from third shuffling round (RVCTKPSKFFRGLCVSDNDCTNACRKEGLPTGFCQSKGFFNSVCVCKKPC; Synthetic sequence obtained from DNA shuffling of a plant sequence.) | y

Now let's try a different one.
Say whether its IC50 (ppm) High Salt Cgr is strictly beneath 3 ppm. Entry: PP-PDF1-2CF-10F3: Pp-PDF1 variant from second shuffling round (RVCTKPSKFFRGLCVSDRNCTNACRKEGLPTGECKSKGFFNSVCVCKKPC; Synthetic sequence obtained from DNA shuffling of a plant sequence.)
y

* * *

- Test system: Colletotrichum graminicola (CGR; isolate Carroll-IA-99)
- Assay type: cell-based
- conditions_used: high salt: 1/2x liquid media plus 1 mM calcium chloride, 50 mM potassium chloride; Table 1
observed_property: IC50 (ppm) High Salt Cgr
Answers are plain numbers, in ppm.

// solved cases for IC50 (ppm) High Salt Cgr follow
substance | experimental_value
Pp-PDF1-4CB-12G9: Pp-PDF1 variant from fourth shuffling round (RVCTKPSKFFRGLCVSDRQCTNACRKEGLPIGECQSKGFFNSVCVCRKPC; Synthetic sequence obtained from DNA shuffling of a plant sequence.) | 0.25
Pp-PDF1-3CA-1 E6: Pp-PDF1 variant from third shuffling round (RVCTKPSKFYRGLCVSDRDCTNACRKEGLPTGFCQSKGFFNSVCVCKKPC; Synthetic sequence obtained from DNA shuffling of a plant sequence.) | 0.6
Pp-PDF1 (4B11): Pp-PDF1 variant identified by DNA shuffling (RVCTKPSKFFKGMCVSDNNCTHACRKEGLPTGFCQSKGFFNSVCVCKKPC; Synthetic sequence obtained from DNA shuffling of a plant sequence.) | 0.8
Pp-PDF1-2CA-1H4: Pp-PDF1 variant from second shuffling round (RVCRKPSKFFKGLCLSDRDCTNACRKEGLATGECQSKGFFNSVCVCEKPC; Synthetic sequence obtained from DNA shuffling of a plant sequence.) | 1

Provide the reported IC50 (ppm) High Salt Cgr of each entry below, same order.
1. Pp-PDF1-3CA-1A7: Pp-PDF1 variant from third shuffling round (RVCTKPSKFFRGLCVSDRDCTNACRKEGLPIGFCQSKGFFNSVCVCKKPC; Synthetic sequence obtained from DNA shuffling of a plant sequence.)
2. Pp-PDF1-1C-6D3: Pp-PDF1 variant from first shuffling round (RVCEKPSKFFKGLCVRDRDCAVACKKEGLASGFCQSKGFFNSVCVCKKPC; Synthetic sequence obtained from DNA shuffling of a plant sequence.)
3. Pp-PDF1-1C-7A4: Pp-PDF1 variant from first shuffling round (RVCEKPSKFFKGLCGSDRDCTNACRKEGLATGECQSKGFFNSVCVCKKPC; Synthetic sequence obtained from DNA shuffling of a plant sequence.)

[0.6, 12, 5]

What is its IC50 (ppm) High Salt Cgr for Colletotrichum graminicola (CGR; isolate Carroll-IA-99)? Entry: PP-PDF1-1F-7H6: Pp-PDF1 variant from first shuffling round (RVCEKPSKFFKGMCVRDRDCTVACKKEGLATGFCQKKGFFNFVCVCKKPC; Synthetic sequence obtained from DNA shuffling of a plant sequence.)
10
